B1: BTBD10 (parent)
chain: FVYENAKEGARNIRTSERVTLIVD

- Variants of: B1
- test-method-notes: protein stability index of a GFP-peptide fusion (GPS, HEK-293T) (PSI 1-6); higher = more stable;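 further: lentivirally expressed fusions sorted by FACS into six bins by GFP to DsRed ratio, PSI derived from sequencing read proportions per bin multiplied by bin number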
- conditions-used: c terminus: a fixed tail appended
Consider the following variants; for each one, report its protein stability index.
Numbers only.

// solved cases for protein stability index follow
| sequence-variant | reported-measurement |
| --- | --- |
| K7P | 2.4 |
| F1K | 3.28 |
| T20H | 2.06 |
| N12D | 1.93 |
| I13E | 2.34 |
| N12M | 1.56 |

Parameter requested: protein stability index. Apply to each item below.
1. V2F
2. L21N
3. N12Y
4. A6K
5. R18H

1. 2.31
2. 2.63
3. 2.61
4. 2.13
5. 1.98
